- Tested on: TMR-cC0-C2 (C0-C2 fragment of human cMyBP-C)
- Assay Overview: FLT-TMR concentration-response assay (FLT of TMR on cC0-C2, no actin)
- Assay type: binding
- Condition: 60 μM compound
*1 amine or outer side, *2 acyl side, *3 side chain or, on linkers, in order; H or OH if unused. Where a SMILES comes first, the peptide text is derived from it. Bridges are numbered along the chain shown (N, C = ends). [ ]: non-standard residue; d: D form. The star is where a group is joined. pTerphenylCO(4''-OnC5H11) = CCCCCOc1ccc(-c2ccc(-c3ccc(C(=O)*)cc3)cc2)cc1; Orn(4R-OH,5R-OH) = O=C([C@H](C[C@@H](O)[C@@H](O)N[*:3])N[*:1])[*:2]; hTyr(3S-OH,4S-OH) = N[C@H](C(=O)O)[C@H](O)[C@@H](O)c1ccc(O)cc1; Pro(3S-OH,4S-Me) = C[C@H]1CN[C@H](C(=O)O)[C@H]1O; Hyp = O=C(O)[C@@H]1C[C@@H](O)CN1
Measurement Type: cC0-C2/cC0-C2#P (ratio of FLT changes)
Provide a numeric answer; units are not to be included.

compound=O=C(Nc1cccc2c(=O)cc(-c3nnn[nH]3)oc12)c1ccc(OCCCCc2ccccc2)cc1 measurement_type="cC0-C2/cC0-C2#P (ratio of FLT changes)" assay_value=0.6

Item C[C@@H](O)[C@H]1C(=O)N2C(C(=O)[O-])=C(S[C@@H]3CN[C@H](C(=O)Nc4cccc(C(=O)O)c4)C3)[C@H](C)[C@H]12.[Na+] [Ertapenem sodium] ; assay system TMR-cC0-C2 (C0-C2 fragment of human cMyBP-C); cC0-C2/cC0-C2#P (ratio of FLT changes) reported as 1.3

Item Cc1nc(-c2ccc(OCC(C)C)c(C#N)c2)sc1C(=O)O ; assay system TMR-cC0-C2 (C0-C2 fragment of human cMyBP-C); cC0-C2/cC0-C2#P (ratio of FLT changes) reported as 0.8

Item COc1cc(Nc2ncc(F)c(Nc3ccc4c(n3)N(COP(=O)(O)O)C(=O)C(C)(C)O4)n2)cc(OC)c1OC [Fostamatinib (R788), Fostamatinib] ; assay system TMR-cC0-C2 (C0-C2 fragment of human cMyBP-C); cC0-C2/cC0-C2#P (ratio of FLT changes) reported as 3.3

Item CCCCCOc1ccc(-c2ccc(-c3ccc(C(=O)N[C@H]4C[C@@H](O)[C@@H](O)NC(=O)[C@@H]5[C@@H](O)[C@@H](C)CN5C(=O)[C@H]([C@@H](C)O)NC(=O)[C@H]([C@H](O)[C@@H](O)c5ccc(O)cc5)NC(=O)[C@@H]5C[C@@H](O)CN5C(=O)[C@H]([C@@H](C)O)NC4=O)cc3)cc2)cc1 [Anidulafungin] ({pTerphenylCO(4''-OnC5H11)}-[Orn(4R-OH,5R-OH)]T[Hyp][hTyr(3S-OH,4S-OH)]T[Pro(3S-OH,4S-Me)]; lactam 1-C) ; assay system TMR-cC0-C2 (C0-C2 fragment of human cMyBP-C); cC0-C2/cC0-C2#P (ratio of FLT changes) reported as 0.7

---

- Tested on: TMR-cC0-C2 (C0-C2 fragment of human cMyBP-C)
- Assay Overview: FLT-TMR concentration-response assay (FLT of TMR on cC0-C2, no actin)
- Type: binding
- Condition: concentration-response, no actin
Measurement Type: effect on FLT of TMR-cC0-C2 (in words)

compound="CCC(C)(Oc1ccc(C2(c3ccc(OC(C)(CC)C(=O)O)cc3)CCCCC2)cc1)C(=O)O (stereo not shown) [Clinofibrate]" target_desc="TMR-cC0-C2 (C0-C2 fragment of human cMyBP-C)" measurement_type="effect on FLT of TMR-cC0-C2 (in words)" assay_value="do not affect"
compound=CCN(C(=O)c1c(O)c2c(Cl)cccc2n(C)c1=O)c1ccccc1 target_desc="TMR-cC0-C2 (C0-C2 fragment of human cMyBP-C)" measurement_type="effect on FLT of TMR-cC0-C2 (in words)" assay_value="do not affect"

---

- System: TMR-cC0-C2 (C0-C2 fragment of human cMyBP-C)
- Assay Overview: FLT-TMR concentration-response assay (FLT of TMR on cC0-C2, no actin)
- Assay type: binding
- Condition: concentration-response, no actin
Measurement Type: effect on FLT of TMR-cC0-C2 (in words)

compound="Oc1cccc2cccnc12 [8-Hydroxyquinoline]" target_desc="TMR-cC0-C2 (C0-C2 fragment of human cMyBP-C)" assay_value="did not"
compound="CCCCNc1ccc(C(=O)OCCOCCOCCOCCOCCOCCOCCOCCOCCOC)cc1 [Benzonatate]" target_desc="TMR-cC0-C2 (C0-C2 fragment of human cMyBP-C)" assay_value="did not"
compound="COC(=O)N[C@H](C(=O)N1CCC[C@H]1c1nc(-c2ccc3c(c2)O[C@@H](c2ccccc2)n2c-3cc3cc(-c4c[nH]c([C@@H]5CCCN5C(=O)[C@@H](NC(=O)OC)C(C)C)n4)ccc32)c[nH]1)C(C)C [Elbasvir]" target_desc="TMR-cC0-C2 (C0-C2 fragment of human cMyBP-C)" assay_value="do not affect"
compound="CC(C(=O)O)c1ccc2c(c1)CC(=O)c1ccccc1S2 (centres unmarked) [Zaltoprofen]" target_desc="TMR-cC0-C2 (C0-C2 fragment of human cMyBP-C)" assay_value="do not affect"

---

- System: TMR-cC0-C2 (C0-C2 fragment of human cMyBP-C)
- Assay Overview: FLT-TMR concentration-response assay (FLT of TMR on cC0-C2, no actin)
- Type: binding
- Condition: 60 μM compound
Measurement Type: cC0-C2 FLT change (% change from DMSO, FLT of TMR-MyBP-C) (%)
# output: bare number, implied unit %

Below are worked cases with known answers.
compound=CCc1c(Cl)c(O)c(Cl)c(O)c1C(=O)O[C@H]1[C@H](O)[C@H](OC)[C@H](OC/C2=C\C=C\C[C@H](O)/C(C)=C/[C@H](CC)[C@@H](O[C@@H]3OC(C)(C)[C@@H](OC(=O)C(C)C)[C@H](O)[C@@H]3O)/C(C)=C/C(C)=C/C[C@@H]([C@@H](C)O)OC2=O)O[C@@H]1C target_desc="TMR-cC0-C2 (C0-C2 fragment of human cMyBP-C)" scale_unit=% assay_value=−5.2
compound="COc1cc(Nc2ncc(F)c(Nc3ccc4c(n3)N(COP(=O)(O)O)C(=O)C(C)(C)O4)n2)cc(OC)c1OC [Fostamatinib (R788), Fostamatinib]" target_desc="TMR-cC0-C2 (C0-C2 fragment of human cMyBP-C)" scale_unit=% assay_value=2.3
compound="CCCCCCCCCCCCCCCC(=O)O[C@@H]1[C@@H](O)[C@@H](O)[C@@H]([C@H](NC(=O)[C@@H]2C[C@@H](CCC)CN2C)[C@H](C)Cl)O[C@@H]1SC.Cl [Clindamycin palmitate HCl]" target_desc="TMR-cC0-C2 (C0-C2 fragment of human cMyBP-C)" scale_unit=% assay_value=−12.7
compound="Cc1cn(-c2cc(NC(=O)c3ccc(C)c(Nc4nccc(-c5cccnc5)n4)c3)cc(C(F)(F)F)c2)cn1.Cl [Nilotinib hydrochloride]" target_desc="TMR-cC0-C2 (C0-C2 fragment of human cMyBP-C)" scale_unit=% assay_value=10.1
compound="C#Cc1cccc(Nc2ncnc3cc(OCCOC)c(OCCOC)cc23)c1 [Erlotinib]" target_desc="TMR-cC0-C2 (C0-C2 fragment of human cMyBP-C)" scale_unit=% assay_value=9.8

Record O=C(Nc1cccc2c(=O)cc(-c3nnn[nH]3)oc12)c1ccc(OCCCCc2ccccc2)cc1 , field cC0-C2 FLT change (% change from DMSO, FLT of TMR-MyBP-C): 30.7

Record CC1(C)CC[C@]2(C(=O)O)CC[C@]3(C)C(=CC[C@@H]4[C@@]5(C)CC[C@H](O)[C@@](C)(CO)[C@@H]5CC[C@]43C)[C@@H]2C1 , field cC0-C2 FLT change (% change from DMSO, FLT of TMR-MyBP-C): 2.5

Record C[C@@H](O)[C@H]1C(=O)N2C(C(=O)[O-])=C(S[C@@H]3CN[C@H](C(=O)Nc4cccc(C(=O)O)c4)C3)[C@H](C)[C@H]12.[Na+] [Ertapenem sodium] , field cC0-C2 FLT change (% change from DMSO, FLT of TMR-MyBP-C): 10.2

Record Clc1ccc(C(Cn2ccnc2)OCc2ccc(Sc3ccccc3)cc2)c(Cl)c1 (stereo not shown) [Fenticonazole nitrate] , field cC0-C2 FLT change (% change from DMSO, FLT of TMR-MyBP-C): −4.7

Record C[C@@H]1O[C@@H](OC[C@H]2O[C@@H](Oc3c(-c4ccc(OCCO)c(OCCO)c4)oc4cc(OCCO)cc(O)c4c3=O)[C@H](O)[C@@H](O)[C@@H]2O)[C@H](O)[C@H](O)[C@H]1O , field cC0-C2 FLT change (% change from DMSO, FLT of TMR-MyBP-C): 6.1
